Data origin, for the record: patent US8188059B2

experiment: Transaminase levels, liver and spleen weights, body weight (Example 6, Table 47); type: in vivo, mouse; details: 8 μmol/kg single i.p.; 72 h; Balb/c mice
Strand notation (5' to 3'): a small letter for the sugar, then the base; units joined by * are phosphorothioate-linked, units joined directly phosphodiester-linked; [ ] holds rarer units or linkages, { } end groups; capitals alone tell only the bases. e = 2'-O-(2-methoxyethyl) (MOE); l = locked nucleic acid (LNA); [5mC] = 5-methylcytosine; d = 2'-deoxy (DNA)
Exercise: for every item that follows, state its recorded Liver Weight.
All answers are understood in % Saline, so give the number only.

Answer with the recorded Liver Weight for the substance listed here: 391172 (antisense lC*lT*dA*dG*dC*dC*dT*dC*dT*dG*dG*dA*lT*lT*lT) [compound 391172] 120

Identify Liver Weight associated with the substance 392061 (antisense l[5mC]*lT*dA*dG*dC*dC*dT*dC*dT*dG*dG*dA*lT*lT) [compound 392061] 123

// fetch Liver Weight given entry 141923 (antisense CCTTCCCTGAAGGTTCCTCC; sugars from the 5' end e5 d10 e5, all phosphorothioate, methylation of C not given here) [compound 141923] 101

Provide Liver Weight value for the following substance: 384073 (antisense lG*lC*lT*dA*dG*d[5mC]*d[5mC]*dT*d[5mC]*dT*dG*dG*dA*lT*lT*lT) [compound 384073] 115

====

test system: rat DGAT2 mRNA; test: Dose-dependent inhibition of DGAT2 in A10 cells, 0.62-150 nM (Example 22, Table 83); type: cell-based; details: 16.67 nM
Strand notation (5' to 3'): a small letter for the sugar, then the base; units joined by * are phosphorothioate-linked, units joined directly phosphodiester-linked; [ ] holds rarer units or linkages, { } end groups; capitals alone tell only the bases. e = 2'-O-(2-methoxyethyl) (MOE); [5mC] = 5-methylcytosine; d = 2'-deoxy (DNA)
value_kind: percent inhibition of rat DGAT2
API doc: respond with a numeric literal and nothing else, no unit.

// fetch percent inhibition of rat DGAT2 for 372530 (antisense eT*e[5mC]*eG*dG*d[5mC]*d[5mC]*d[5mC]*d[5mC]*dA*dG*dG*dA*dG*e[5mC]*e[5mC]*e[5mC]) [compound 372530] ; system: rat DGAT2 mRNA 10

State the measured percent inhibition of rat DGAT2 (rat DGAT2 mRNA) of 372563 (antisense eA*eG*d[5mC]*d[5mC]*dA*dG*dG*dT*dG*dA*d[5mC]*dA*eG*eA) [compound 372563] 1

Give the observed percent inhibition of rat DGAT2 of 372508 (antisense eA*eG*eT*dT*d[5mC]*d[5mC]*dT*dG*dG*dT*dG*dG*dT*e[5mC]*eA*eG) [compound 372508] for rat DGAT2 mRNA. 14

Supply percent inhibition of rat DGAT2 measured with rat DGAT2 mRNA for 372578 (antisense eT*eG*dT*dG*dT*d[5mC]*dT*dT*d[5mC]*dA*d[5mC]*d[5mC]*eA*eG) [compound 372578] . 2

Please tell me the measured percent inhibition of rat DGAT2 for 372594 (antisense eA*e[5mC]*dA*dG*dA*dA*dG*dG*d[5mC]*dA*d[5mC]*d[5mC]*e[5mC]*eA) [compound 372594] ; system: rat DGAT2 mRNA. 0

Check rat DGAT2 mRNA data and give percent inhibition of rat DGAT2 for 372602 (antisense e[5mC]*e[5mC]*dA*dG*dG*d[5mC]*dA*dT*dG*dG*dA*dG*e[5mC]*eT) [compound 372602] . 0

Find percent inhibition of rat DGAT2 for 372524 (antisense eG*e[5mC]*e[5mC]*dA*dG*dG*d[5mC]*dA*dT*dG*dG*dA*dG*e[5mC]*eT*e[5mC]) [compound 372524] on rat DGAT2 mRNA and write it down. 30

# return percent inhibition of rat DGAT2 of 372580 (antisense eG*eG*dT*dT*dG*dT*dG*dT*dG*dT*d[5mC]*dT*eT*e[5mC]) [compound 372580] (system: rat DGAT2 mRNA) 3

Fetch value of percent inhibition of rat DGAT2 on rat DGAT2 mRNA for 372503 (antisense eG*e[5mC]*eA*dG*dG*dT*dT*dG*dT*dG*dT*dG*dT*e[5mC]*eT*eT) [compound 372503] . 25

Print rat DGAT2 mRNA percent inhibition of rat DGAT2 for 372500 (antisense eG*eT*eG*dT*dG*dT*d[5mC]*dT*dT*d[5mC]*dA*d[5mC]*d[5mC]*eA*eG*e[5mC]) [compound 372500] . 18

====

test system: PTP1B mRNA; assay: Dose response for human PTP1B in HuVEC cells, Primer Probe Set 198 (Example 25, Table 86); format: cell-based; conditions: PPS 198, 3.33 nM
Strand notation (5' to 3'): a small letter for the sugar, then the base; units joined by * are phosphorothioate-linked, units joined directly phosphodiester-linked; [ ] holds rarer units or linkages, { } end groups; capitals alone tell only the bases. e = 2'-O-(2-methoxyethyl) (MOE); [5mC] = 5-methylcytosine; d = 2'-deoxy (DNA)
Give measured % Inhibition of PTP1B mRNA for each item. Keep answers brief.

Quickly give me recorded % Inhibition of PTP1B mRNA for 399102 (antisense eG*eA*dA*dG*dT*d[5mC]*dA*d[5mC]*dT*dG*dG*d[5mC]*eT*eT) [compound 399102] 15%

Quick one: give measured % Inhibition of PTP1B mRNA for 399208 (antisense eA*eG*d[5mC]*dT*d[5mC]*dG*d[5mC]*dT*dA*d[5mC]*d[5mC]*dT*e[5mC]*eT) [compound 399208] 37%

Assign % Inhibition of PTP1B mRNA to the following record: 398173 (antisense e[5mC]*dA*dG*d[5mC]*d[5mC]*dT*dG*dG*dG*d[5mC]*dA*e[5mC]) [compound 398173] 4%

Quickly give me recorded % Inhibition of PTP1B mRNA for 399173 (antisense eA*eT*dG*d[5mC]*dT*dA*dG*dT*dG*d[5mC]*dA*d[5mC]*eT*eA) [compound 399173] 24%

====

Assignment: determine reported DGAT2 mRNA, % Control for the given substances.
tested on: DGAT2 mRNA; assay: Antisense inhibition of DGAT2 in A10 cells at 75 nM (Example 22, Table 81); assay type: cell-based, rat; settings: approximately 24 hours
Strand notation (5' to 3'): a small letter for the sugar, then the base; units joined by * are phosphorothioate-linked, units joined directly phosphodiester-linked; [ ] holds rarer units or linkages, { } end groups; capitals alone tell only the bases. e = 2'-O-(2-methoxyethyl) (MOE); [5mC] = 5-methylcytosine; d = 2'-deoxy (DNA)

Provide measured DGAT2 mRNA, % Control value, entry: 372500 (antisense eG*eT*eG*dT*dG*dT*d[5mC]*dT*dT*d[5mC]*dA*d[5mC]*d[5mC]*eA*eG*e[5mC]) [compound 372500] 16%

Quote DGAT2 mRNA, % Control reported for 372569 (antisense e[5mC]*eA*dT*dG*dA*dG*dG*dA*dT*dG*dA*d[5mC]*eA*e[5mC]) [compound 372569] please. 104%

Answer with reported DGAT2 mRNA, % Control of 372563 (antisense eA*eG*d[5mC]*d[5mC]*dA*dG*dG*dT*dG*dA*d[5mC]*dA*eG*eA) [compound 372563] 48%

Respond only with DGAT2 mRNA, % Control recorded for 372580 (antisense eG*eG*dT*dT*dG*dT*dG*dT*dG*dT*d[5mC]*dT*eT*e[5mC]) [compound 372580] 48%

Report DGAT2 mRNA, % Control, nothing else, for this substance: 372586 (antisense eG*eT*dT*d[5mC]*d[5mC]*dT*dG*dG*dT*dG*dG*dT*e[5mC]*eA) [compound 372586] 40%

Let me know recorded DGAT2 mRNA, % Control for 372546 (antisense eT*eT*eG*dG*dT*d[5mC]*dT*dT*dG*dT*dG*dA*dT*eT*eG*eT) [compound 372546] , thanks. 34%

Give me measured DGAT2 mRNA, % Control, please, for this substance: 372578 (antisense eT*eG*dT*dG*dT*d[5mC]*dT*dT*d[5mC]*dA*d[5mC]*d[5mC]*eA*eG) [compound 372578] 59%

Return DGAT2 mRNA, % Control (reported value) for this substance: 372594 (antisense eA*e[5mC]*dA*dG*dA*dA*dG*dG*d[5mC]*dA*d[5mC]*d[5mC]*e[5mC]*eA) [compound 372594] 77%

Give reported DGAT2 mRNA, % Control value for 372508 (antisense eA*eG*eT*dT*d[5mC]*d[5mC]*dT*dG*dG*dT*dG*dG*dT*e[5mC]*eA*eG) [compound 372508] 35%

Write down DGAT2 mRNA, % Control measured for item 372624 (antisense eT*eG*dG*dT*d[5mC]*dT*dT*dG*dT*dG*dA*dT*eT*eG) [compound 372624] 56%

Could you please provide reported DGAT2 mRNA, % Control for 372530 (antisense eT*e[5mC]*eG*dG*d[5mC]*d[5mC]*d[5mC]*d[5mC]*dA*dG*dG*dA*dG*e[5mC]*e[5mC]*e[5mC]) [compound 372530] ? Thanks! 35%

Determine from records and report DGAT2 mRNA, % Control for 372516 (antisense eT*eA*e[5mC]*dA*dG*dA*dA*dG*dG*d[5mC]*dA*d[5mC]*d[5mC]*e[5mC]*eA*eG) [compound 372516] 27%

Using known records, supply DGAT2 mRNA, % Control for 372524 (antisense eG*e[5mC]*e[5mC]*dA*dG*dG*d[5mC]*dA*dT*dG*dG*dA*dG*e[5mC]*eT*e[5mC]) [compound 372524] 21%

Quote DGAT2 mRNA, % Control reported for 372491 (antisense eA*e[5mC]*eA*dT*dG*dA*dG*dG*dA*dT*dG*dA*d[5mC]*eA*e[5mC]*eT) [compound 372491] please. 80%

Answer with the recorded DGAT2 mRNA, % Control of 372618 (antisense eG*eT*dG*dG*dT*dA*d[5mC]*dA*dG*dG*dT*d[5mC]*eG*eA) [compound 372618] only. 29%

Fill in DGAT2 mRNA, % Control for record 372503 (antisense eG*e[5mC]*eA*dG*dG*dT*dT*dG*dT*dG*dT*dG*dT*e[5mC]*eT*eT) [compound 372503] 35%

Quickly give me recorded DGAT2 mRNA, % Control for 372501 (antisense eT*eT*eG*dT*dG*dT*dG*dT*d[5mC]*dT*dT*d[5mC]*dA*e[5mC]*e[5mC]*eA) [compound 372501] 28%

In one line, give reported DGAT2 mRNA, % Control of the entry 372602 (antisense e[5mC]*e[5mC]*dA*dG*dG*d[5mC]*dA*dT*dG*dG*dA*dG*e[5mC]*eT) [compound 372602] . 39%
